experiment: Cmax in cynomolgus monkey at 0.5 mg/kg, po; format: ADME, organism-based, Macaca fascicularis; design: dose 0.5 mg/kg, route oral; conditions: in vivo
Endpoint: Cmax (µg/mL)
Numbers only, in µg/mL.

Measured Cmax, `CO[C@H]1C[C@@H](CO[C@H]2CC[C@H](C(=O)O)CC2)N(C(=O)Cc2cc(Cl)c(NC(=O)c3cn(C)c4ccccc34)cc2Cl)C1` : 0.431

----------
experiment: Clearance in cynomolgus monkey at 0.5 mg/kg, iv; assay type: ADME, organism-based, Macaca fascicularis; set-up: dose 0.5 mg/kg, route intravenous; conditions: in vivo
Endpoint: clearance (mL/min/kg)
Numbers only, in mL/min/kg.

Measured clearance, `CO[C@H]1C[C@@H](CO[C@H]2CC[C@H](C(=O)O)CC2)N(C(=O)Cc2cc(Cl)c(NC(=O)c3cn(C)c4ccccc34)cc2Cl)C1` : 1.8

----------
assay: Volume of distribution at steady state in Sprague-Dawley rat at 10 mg/kg, iv; format: ADME, organism-based; design: dose 10 mg/kg, route intravenous; conditions: in vivo, read-out: Vdss
Endpoint: Vd (L/kg)
Numbers only, in L/kg.

Measured Vd, `Cc1ccccc1Nc1nc2ccc(CC(=O)N3C[C@@H](F)C[C@H]3CO[C@H]3CC[C@H](C(=O)O)CC3)cc2o1` : 0.317

----------
assay: Clearance in Sprague-Dawley rat at 10 mg/kg, iv; assay type: ADME, organism-based; set-up: dose 10 mg/kg, route intravenous; conditions: in vivo
Endpoint: clearance (mL/min/kg)
Give bare numbers, in mL/min/kg.

Measured clearance, `Cc1ccccc1Nc1nc2ccc(CC(=O)N3C[C@@H](F)C[C@H]3CO[C@H]3CC[C@H](C(=O)O)CC3)cc2o1` : 12.2

----------
test: Volume of distribution at steady state in cynomolgus monkey at 0.5 mg/kg, iv; assay type: ADME, organism-based, Macaca fascicularis; parameters: dose 0.5 mg/kg, route intravenous; settings: in vivo, read-out: Vdss
Endpoint: Vd (L/kg)
One number for each entry, in L/kg.

Measured Vd, `CO[C@H]1C[C@@H](CO[C@H]2CC[C@H](C(=O)O)CC2)N(C(=O)Cc2cc(Cl)c(NC(=O)c3cn(C)c4ccccc34)cc2Cl)C1` : 0.223

----------
test: AUC in Beagle dog at 0.5 mg/kg, iv; format: ADME, organism-based, Canis lupus familiaris; design: dose 0.5 mg/kg, route intravenous; conditions: plasma
Endpoint: AUC (ng·h/mL)
Numbers only, in ng·h/mL.

Measured AUC, `CO[C@H]1C[C@@H](CO[C@H]2CC[C@H](C(=O)O)CC2)N(C(=O)Cc2cc(Cl)c(NC(=O)c3cn(C)c4ccccc34)cc2Cl)C1` : 6710

----------
test: AUC in Beagle dog at 0.5 mg/kg, po; type: ADME, organism-based, Canis lupus familiaris; set-up: dose 0.5 mg/kg, route oral; conditions: plasma
Endpoint: AUC (ng·h/mL)
Answers are plain numbers, in ng·h/mL.

Measured AUC, `CO[C@H]1C[C@@H](CO[C@H]2CC[C@H](C(=O)O)CC2)N(C(=O)Cc2cc(Cl)c(NC(=O)c3cn(C)c4ccccc34)cc2Cl)C1` : 6090

----------
test: AUC in Sprague-Dawley rat at 1 mg/kg, iv; assay type: ADME, organism-based; set-up: dose 1 mg/kg, route intravenous; conditions: plasma
Endpoint: AUC

Measured AUC, `CO[C@H]1C[C@@H](CO[C@H]2CC[C@H](C(=O)O)CC2)N(C(=O)Cc2cc(Cl)c(NC(=O)c3cn(C)c4ccccc34)cc2Cl)C1` : 865 ng·h/mL

----------
assay: Oral bioavailability in Beagle dog at 0.5 mg/kg, po; format: ADME, organism-based, Canis lupus familiaris; settings: in vivo
Endpoint: bioavailability (%)
One number for each entry, in %.

Measured bioavailability, `CO[C@H]1C[C@@H](CO[C@H]2CC[C@H](C(=O)O)CC2)N(C(=O)Cc2cc(Cl)c(NC(=O)c3cn(C)c4ccccc34)cc2Cl)C1` : 91

----------
assay: Half life in Sprague-Dawley rat at 1 mg/kg, po; type: ADME, organism-based; design: dose 1 mg/kg, route oral; settings: in vivo
Endpoint: half-life

Measured half-life, `CO[C@H]1C[C@@H](CO[C@H]2CC[C@H](C(=O)O)CC2)N(C(=O)Cc2cc(Cl)c(NC(=O)c3cn(C)c4ccccc34)cc2Cl)C1` : 1.5 h

----------
test: Drug level in BALB/c mouse serum at 10 mg/kg, po after 15 mins; assay type: ADME, organism-based; set-up: dose 10 mg/kg, route oral; conditions: read-out: Drug uptake
Endpoint: concentration at 0.25 h (ng/mL)
One number for each entry, in ng/mL.

{"Smiles Repr": "Cc1ccccc1Nc1nc2ccc(CC(=O)N3C[C@@H](F)C[C@H]3CO[C@H]3CC[C@H](C(=O)O)CC3)cc2o1", "Result Units": "ng/mL", "concentration at 0.25 h": 373}

Field: concentration at 0.25 h. Fill in for each record below.
1. O=C(Nc1ccc(CC(=O)N2C[C@@H](F)C[C@H]2CO[C@H]2CC[C@H](C(=O)O)CC2)cc1Cl)c1nsc2ccccc12
2. Cc1ccc(F)cc1Nc1nc2ccc(CC(=O)N3C[C@@H](F)C[C@H]3CO[C@H]3CC[C@H](C(=O)O)CC3)cc2o1
3. CO[C@H]1C[C@@H](CO[C@H]2CC[C@H](C(=O)O)CC2)N(C(=O)Cc2cc(Cl)c(NC(=O)c3cn(C)c4ccccc34)cc2Cl)C1
4. CO[C@H]1C[C@@H](CO[C@H]2CC[C@H](C(=O)O)CC2)N(C(=O)Cc2cc(Cl)c(NC(=O)c3cn(C)c4ccccc34)cc2F)C1
5. O=C(Nc1ccc(CC(=O)N2C[C@@H](F)C[C@H]2CO[C@H]2CC[C@H](C(=O)O)CC2)cc1Cl)N1CCc2ccccc21
6. O=C(Nc1cc(F)c(CC(=O)N2C[C@@H](F)C[C@H]2CO[C@H]2CC[C@H](C(=O)O)CC2)cc1Cl)c1nsc2ccccc12

2150
448
6150
9400
1100
307

Measured concentration at 0.25 h, `O=C(Nc1cc(F)c(CC(=O)N2C[C@@H](F)C[C@H]2CO[C@H]2CC[C@H](C(=O)O)CC2)cc1Cl)N1CCc2ccccc21` : 2960

----------
Provide the recorded pIC50 for the entries that follow.
biological target: Integrin alpha-4/beta-1 (Homo sapiens, UniProt P05556+P13612); assay: Inhibition of europium labeled human VCAM1/Fc chimera binding to human VLA-4 alpha-4-beta-1 expressed in Chinese hamster 4B4 cells in presence of 3% HSA by fluorimetric assay; format: cell-based
Sequence (P05556 whole entry): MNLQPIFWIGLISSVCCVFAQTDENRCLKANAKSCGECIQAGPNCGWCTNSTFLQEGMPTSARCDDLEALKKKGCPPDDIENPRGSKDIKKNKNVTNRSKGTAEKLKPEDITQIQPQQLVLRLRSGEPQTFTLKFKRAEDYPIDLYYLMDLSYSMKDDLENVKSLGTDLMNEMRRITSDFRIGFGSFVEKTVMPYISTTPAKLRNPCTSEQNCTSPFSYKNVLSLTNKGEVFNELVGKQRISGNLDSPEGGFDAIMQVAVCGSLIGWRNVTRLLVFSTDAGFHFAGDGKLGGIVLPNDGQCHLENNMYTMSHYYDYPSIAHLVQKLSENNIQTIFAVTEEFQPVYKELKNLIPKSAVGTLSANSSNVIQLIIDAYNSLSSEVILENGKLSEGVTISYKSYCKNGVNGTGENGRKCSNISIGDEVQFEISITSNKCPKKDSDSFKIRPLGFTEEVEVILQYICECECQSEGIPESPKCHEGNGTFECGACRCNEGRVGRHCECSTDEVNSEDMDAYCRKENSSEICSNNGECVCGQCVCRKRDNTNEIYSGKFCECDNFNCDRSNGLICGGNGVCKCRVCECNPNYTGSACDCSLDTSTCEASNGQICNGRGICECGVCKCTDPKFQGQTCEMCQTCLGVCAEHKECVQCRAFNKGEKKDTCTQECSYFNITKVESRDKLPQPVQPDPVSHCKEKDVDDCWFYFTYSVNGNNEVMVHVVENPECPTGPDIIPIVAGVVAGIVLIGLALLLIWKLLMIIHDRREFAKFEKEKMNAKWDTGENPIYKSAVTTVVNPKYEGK
Sequence (P13612 whole entry): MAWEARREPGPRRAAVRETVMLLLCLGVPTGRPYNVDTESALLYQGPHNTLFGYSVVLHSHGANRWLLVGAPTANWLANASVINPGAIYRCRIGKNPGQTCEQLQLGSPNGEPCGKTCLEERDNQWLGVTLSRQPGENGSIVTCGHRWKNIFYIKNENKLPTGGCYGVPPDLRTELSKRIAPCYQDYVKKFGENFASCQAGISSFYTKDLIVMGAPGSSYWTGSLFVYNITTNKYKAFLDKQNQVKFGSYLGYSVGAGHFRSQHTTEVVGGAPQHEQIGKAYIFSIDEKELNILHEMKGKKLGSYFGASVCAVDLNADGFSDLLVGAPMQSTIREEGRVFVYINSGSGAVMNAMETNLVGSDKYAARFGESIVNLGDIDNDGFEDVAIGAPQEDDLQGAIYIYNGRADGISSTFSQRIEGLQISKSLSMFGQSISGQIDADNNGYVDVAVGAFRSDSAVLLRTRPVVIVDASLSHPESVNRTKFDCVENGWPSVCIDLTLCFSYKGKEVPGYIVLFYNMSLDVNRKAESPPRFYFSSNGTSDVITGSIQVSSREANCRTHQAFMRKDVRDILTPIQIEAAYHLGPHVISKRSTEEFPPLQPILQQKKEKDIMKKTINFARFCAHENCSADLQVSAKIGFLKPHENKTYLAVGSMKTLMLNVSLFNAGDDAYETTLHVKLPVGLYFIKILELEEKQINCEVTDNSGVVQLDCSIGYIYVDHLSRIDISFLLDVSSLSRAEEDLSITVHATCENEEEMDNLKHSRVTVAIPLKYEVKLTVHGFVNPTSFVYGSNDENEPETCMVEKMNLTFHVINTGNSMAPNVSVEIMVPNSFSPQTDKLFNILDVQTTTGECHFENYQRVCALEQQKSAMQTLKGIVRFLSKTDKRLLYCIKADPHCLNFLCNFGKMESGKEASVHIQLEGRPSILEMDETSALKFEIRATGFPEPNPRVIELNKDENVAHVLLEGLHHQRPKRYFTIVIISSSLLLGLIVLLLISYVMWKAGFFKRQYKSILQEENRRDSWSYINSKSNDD
One number for each entry, as −log10 of the molar value.

{"Smiles Repr": "O=C(Cc1ccc(Nc2nc3cccc(F)c3o2)c(Cl)c1)N1C[C@@H](F)C[C@H]1CO[C@H]1CC[C@H](C(=O)O)CC1", "System Name": "Integrin alpha-4/beta-1 (Homo sapiens, UniProt P05556+P13612)", "pIC50": 5.99}

Field: pIC50. Fill in for each record below.
1. O=C(Nc1ccc(CC(=O)N2C[C@@H](F)C[C@H]2CO[C@H]2CC[C@H](C(=O)O)CC2)cc1Cl)N1CCc2ccccc21
2. Cc1ccc(F)cc1Nc1nc2ccc(CC(=O)N3C[C@@H](F)C[C@H]3CO[C@H]3CC[C@H](C(=O)O)CC3)c(F)c2o1
3. Cn1cc(C(=O)Nc2cc(Cl)c(CC(=O)N3C[C@@H](F)C[C@H]3CO[C@H]3CC[C@H](C(=O)O)CC3)cc2Cl)c2ccccc21
4. Cc1ccccc1Nc1nc2ccc(CC(=O)N3C[C@@H](F)C[C@H]3CO[C@H]3CC[C@H](C(=O)O)CC3)cc2o1
5. O=C(Nc1cc(F)c(CC(=O)N2C[C@@H](F)C[C@H]2CO[C@H]2CC[C@H](C(=O)O)CC2)cc1Cl)c1n[nH]c2ccccc12
6. O=C(Nc1ccc(CC(=O)N2C[C@@H](F)C[C@H]2CO[C@H]2CC[C@H](C(=O)O)CC2)cc1Cl)c1nccc2ccccc12

1. 7.08
2. 6.36
3. 6.62
4. 7.35
5. 6.97
6. 6.38

Field: pIC50. Fill in for each record below.
1. CO[C@H]1C[C@@H](CO[C@H]2CC[C@H](C(=O)O)CC2)N(C(=O)Cc2cc(Cl)c(NC(=O)c3cn(C)c4ccccc34)cc2F)C1
2. Cn1cc(C(=O)Nc2cc(F)c(CC(=O)N3C[C@@H](F)C[C@H]3CO[C@H]3CC[C@H](C(=O)O)CC3)cc2Cl)c2ccccc21

7.44
6.55

----------
assay: Clearance in Sprague-Dawley rat at 1 mg/kg, iv; type: ADME, organism-based; design: dose 1 mg/kg, route intravenous; settings: in vivo
Endpoint: clearance (mL/min/kg)
One number for each entry, in mL/min/kg.

{"Smiles Repr": "O=C(Nc1ccc(CC(=O)N2C[C@@H](F)C[C@H]2CO[C@H]2CC[C@H](C(=O)O)CC2)cc1Cl)c1c[nH]c2ccccc12", "Endpoint Result": 61.1}
{"Smiles Repr": "Cn1cc(C(=O)Nc2ccc(CC(=O)N3C[C@@H](F)C[C@H]3CO[C@H]3CC[C@H](C(=O)O)CC3)cc2Cl)c2ccccc21", "Endpoint Result": 5}
{"Smiles Repr": "CO[C@H]1C[C@@H](CO[C@H]2CC[C@H](C(=O)O)CC2)N(C(=O)Cc2cc(Cl)c(NC(=O)c3cn(C)c4ccccc34)cc2Cl)C1", "Endpoint Result": 19.3}

Now look at this entry.
Measured clearance, `Cn1cc(C(=O)Nc2cc(F)c(CC(=O)N3C[C@@H](F)C[C@H]3CO[C@H]3CC[C@H](C(=O)O)CC3)cc2Cl)c2ccccc21` : 2.6
